Tested on: U251 CNS
test.description: NCI-60 one-dose screen, 48 h
assay.conditions: 10 µM unless noted
About 83,000 compounds went through this panel and 20% of them were active in at least one assay; those are over-represented in the sample as a whole. Activity calls are given as the source filed them. The calls were made as follows: active = growth percent below 10; inactive = the rest.
Use one of these outcomes when replying: label 1 for active, label 0 for inactive

COc1ccc(-c2cc(C(=O)N=Nc3c(O)[nH]c4ccccc34)c3ccccc3n2)cc1OC; label 0
COc1ccc(CNS(=O)(=O)/N=C2\NC(=O)NC2=C(Cl)Cl)cc1; label 0
COc1ccc(-c2nc3ccc(-c4nnc(SCC(=O)Nc5ccc(C(=O)/C=C/c6ccccc6)cc5)o4)cc3[nH]2)cc1OC; label 0
C[C@@H](Nc1c(C#N)cnc2ccc(-c3cnc(N)nc3)cc12)c1ccccc1; label 0

Q: Can you look up the reported call for NC(=O)c1cc(-c2ccc3ncnc(N4CCc5cc(F)c(Cl)cc54)c3c2)cnc1N for me?
A: label 0

Q: Give the logged outcome of this assay for the following compound: C=CCSc1ccc2c(c1)C(N1CCNCC1)=Nc1ccccc1O2
A: label 0

Q: So what was the verdict on COc1cc(-c2nc3ccc(-c4nnc(SCC(=O)Nc5ccc(C(C)=O)cc5)o4)cc3[nH]2)cc(OC)c1OC in this test?
A: label 0

Q: Which outcome was entered for the compound Fc1ccc(-c2cc3nc(C(Cl)Cl)nc(-c4ccc(Cl)cc4)n3n2)cc1 in this test?
A: label 1

Q: What is the recorded call for this compound in the test? N#Cc1c(-c2ccc(F)cc2)nc2c(C#N)c(Nc3ccccc3)nn2c1N
A: label 0

Q: Outcome logged for COC(=O)C1CN(S(=O)(=O)/N=C2\NC(=O)NC2=C(Cl)Cl)C1 in this assay:
A: label 0

Q: // outcome(item) with item = N#Cc1nc(-c2ccccc2)oc1N1CC[C@@H](CO)C1
A: label 0

Q: Outcome? c1ccc2c(NCCCn3ccnc3)c3oc4ccccc4c3nc2c1
A: label 0

Q: Can you look up the reported call for COc1ccc(C(=O)c2cc(C(=O)/C=C/c3c(Cl)cccc3Cl)c3cc(C)ccn23)cc1 for me?
A: label 0

Q: What outcome does the record of this test show for COc1ccc(-c2nn3c(-c4ccccc4F)nnc3s2)cc1 ?
A: label 0

Q: So what was the verdict on COc1ccc(-n2c(SCC(=O)Nc3ccc(-c4nc5ccccc5[nH]4)cc3)nc3ccccc3c2=O)cc1 in this test?
A: label 1

Q: Each compound tested received a call. Report the one for N#Cc1c(-c2ccc(Cl)cc2)nc(SCc2ccccc2)nc1N1CCNCC1 .
A: label 1

Q: Hey, what did the test say about COc1ccc(/C=C/C(=O)c2ccc(NC(=O)CSc3nnc(-c4ccc5nc(-c6ccc(Cl)cc6)[nH]c5c4)o3)cc2)cc1 ?
A: label 0

Q: Look up the recorded call for CN1CCc2c(sc3ncnc(N/N=C/c4ccc(Cl)c(Cl)c4)c23)C1 in this test.
A: label 1

Q: Can you look up the reported call for CCN(CC)c1ccc(C=O)c(OCc2cn(CC(=O)Nc3ccc(Cl)cc3)nn2)c1 for me?
A: label 0

Q: Record request — test call for Nc1nc(N)c2c(n1)NC(c1ccc(F)cc1)CC(c1ccc(Nc3nc(NCCO)nc(Nc4ccc(Cl)cc4)n3)cc1)=N2 (stereo unspecified)
A: label 1

Q: Please indicate how the test categorized O=C(N/N=C/c1ccc(Cl)s1)c1[nH]c2ccc(Br)cc2c1-c1ccccc1 .
A: label 0

Q: Hi, do you know how CS(=O)(=O)c1ccc(-c2nc3ccccn3c2C=Nc2ccc(Cl)cc2)cc1 came out in this test?
A: label 0

Q: Each compound tested received a call. Report the one for OC1CCN(CCCOc2c3ccccc3nc3c2oc2ccccc23)CC1 .
A: label 1

Q: Tell me the recorded outcome of this test for Clc1ccc(Cc2nnc3sc(-c4cccnc4)nn23)cc1 .
A: label 0

Q: Hello, I am checking results. What call was entered for COc1ccc(-c2nc3ccc(-c4nnc(SCC(=O)Nc5ccc(C(C)=O)cc5)o4)cc3[nH]2)cc1 ?
A: label 0

Q: Fill in: this test's call for c1ccc(CNc2ncnc3ccc(-c4cnc5[nH]ncc5c4)cc23)cc1 is ___
A: label 0
